Measured values drawn from PubChem BioAssay (NCI) for this set.

# Tested on: MDA-MB-468 breast
# PROTOCOL DETAILS: NCI-60 one-dose screen, 48 h (100 = growth as untreated, 0 = no growth, -100 = all killed)
# SETUP CONDITIONS: 10 µM unless noted
This is part of a sample that, as a whole, favours compounds with a hit. Of some 83,000 tested, about 20% had one in any assay.
Please go through the items and note down their growth.
The response must be a number in % with no trailing unit.

*Q* Dear colleague, please send me the reported growth for `COc1cc(-c2cc(-c3ccc(Nc4nc(Nc5ccccc5)nc(Nc5ccc(Cl)cc5)n4)cc3)nc(N)n2)cc(OC)c1OC` when you can.
*A* 90.7

*Q* Write down growth measured for item `COc1ccc(CNCCCN2C(=O)c3ccc4c5c(ccc(c35)C2=O)C(=O)N(CCCNCCCCNCCCN)C4=O)c(OC)c1OC`
*A* -85.6

*Q* Give growth for `Cc1cc(N2CCOCC2)nc(N[C@@H]2CCC[C@H](Nc3ccnc4cc(Cl)ccc34)C2)n1`
*A* -6.14

*Q* For `CN(C)C(=O)OCc1ccc2c(Cl)cc(Cl)c(O)c2n1` , write its growth.
*A* 27

*Q* Give the reported growth for this compound. `COc1ccc2nc(-c3ccc(Cl)cc3)cc(-c3nnc(SCC(=O)Nc4ccc(/C(C)=N\O)cc4)o3)c2c1`
*A* 58.4

*Q* Fill in reported growth for this entry: `COc1ccc(-c2cc(-c3ccccc3)nc(SCCCCCC(=O)NO)n2)cc1`
*A* 64.8

*Q* Give me measured growth, please, for this compound: `COc1ccccc1N1CCN(CCn2c(=O)c3c(c4ccccc4n3C)n(C)c2=O)CC1`
*A* 92

*Q* Fill in growth for record `CCc1cccc2c1S/C(=C/c1ccc(OC)cc1)C2=O`
*A* 27.3

*Q* Determine from records and report growth for `Nc1ncc(-c2ccc3ncnc(NCc4ccccc4)c3c2)cn1`
*A* -11.7

----------
# Test system: MDA-MB-468 breast
# PROTOCOL DETAILS: NCI-60 one-dose screen, 48 h (100 = growth as untreated, 0 = no growth, -100 = all killed)
# SETUP CONDITIONS: 10 µM unless noted
# Procedure: Growth inhibition of the MDA-MB-468 human Breast tumor cell line is measured as a screen for anti-cancer activity. Cells are grown in 96 well plates and exposed to the test compound for 48 hours. Compounds are tested at a single concentration, which is 10^-5 M for most compounds. The reported endpoint is percent growth (GI% or GIPRCNT), where numbers from 0 - 100% represent growth inhibition, and numbers from -100% - 0 represent cell death. […]
This is part of a sample that, as a whole, favours compounds with a hit. Of some 83,000 tested, about 20% had one in any assay.
READOUT: growth (%)
Please respond with the number in % and leave the unit unwritten.

*Q* Supply measured growth of N#CC1=C(N)Oc2c(sc3c(F)cccc23)C1c1ccc(F)cc1 (stereo not given) in your reply.
*A* 26.5

*Q* Determine its reported growth: `[2H]C([2H])([2H])Oc1ccc(F)cc1/C=C/C(=O)/C=C(/C=C/c1cc(F)ccc1OC([2H])([2H])[2H])OB(F)F`
*A* 69.5

*Q* Please give the documented growth of `CCCCCCCCc1cc[n+](CC(=O)c2ccc(Br)cc2)cc1`
*A* -87

*Q* State its growth for this molecule: O=C(O)CCC(=O)OC(C1CO1)C(OC(=O)CCC(=O)O)C1CO1 (stereo not given)
*A* 99

*Q* Answer with the recorded growth for the molecule listed here: `N=c1ccccn1CCO`
*A* 113

*Q* Specify measured growth for `Cc1nn(Cc2ccccc2)cc1C(=O)Nc1sc2c(c1C(N)=O)CCC(=O)C2` .
*A* 47.2

*Q* Tell me growth reported for Nc1nc(N)c2cc(CNc3ccc(C(=O)NC(CC(=O)O)C(=O)O)cc3)ccc2n1 (stereo not given)
*A* 61.4

*Q* Quickly give me recorded growth for Nc1nc(N)c2c(n1)NC(c1cccc(Nc3ccnc4cc(C(F)(F)F)ccc34)c1)CC(c1ccc(F)cc1)=N2 (stereo not given)
*A* 18

*Q* Return reported growth. Input molecule: `Cc1nn(-c2ccccc2)c2nc3c(nc12)C(=O)CCC3`
*A* 88.3

*Q* Name the recorded growth of the molecule listed here: `COc1ccc(C(=O)NNc2nc(Cl)nc(N3CCN(C(c4ccccc4)c4ccccc4)CC3)n2)cc1`
*A* -31.9

----------
# Test system: MDA-MB-468 breast
# PROTOCOL DETAILS: NCI-60 one-dose screen, 48 h
# SETUP CONDITIONS: 10 µM unless noted
The panel holds about 83,000 compounds, 20% with a hit somewhere; the sample as a whole holds those more often. Active and inactive are the calls of the source. How the source made its calls: active means growth percent below 10; inactive means the rest.
Tick one outcome: active, inactive

*Q* Hey, what did the test say about `COc1ccc(C(=O)CSc2nccc(Nc3ccc(C(=O)O)cc3)n2)cc1` ?
*A* inactive

*Q* Please let me know the test result on file for `O=C(O)/C=C/C(=O)Nc1cccc(Cn2nnc3cc(Cl)c(Cl)cc32)c1` .
*A* inactive

*Q* What was the test verdict on `Cc1cnc(NC(=O)Nc2cc(Br)c(C)cc2OC[C@@H]2CNCCO2)cn1` ?
*A* active

*Q* State the result this test recorded for `CCOC(=O)c1sc(-c2ccc(OS(=O)(=O)C[C@]34CCC(CC3=O)C4(C)C)c(C=O)c2)nc1C` .
*A* active

*Q* Called result for `O=[N+]([O-])c1ccc(O)cc1Br`
*A* inactive

*Q* I'd appreciate the recorded outcome for `O=C(Nc1nc2ccc(C(F)(F)F)cc2s1)c1cc(Cl)ccc1O` from this test.
*A* active

*Q* Recorded test call requested for `O=C1c2ccccc2C(=O)c2c(N=Nc3sc(=O)[nH]c3S)cccc21`
*A* inactive

*Q* Write down the call the test reported for this molecule. Item: `CCCCCN1C=C/C(=C\C(=O)N(C)c2ccccc2Br)c2ccccc21`
*A* inactive

*Q* For this molecule, state the assay outcome: `O=C(CSc1nc2ccccc2c(=O)n1-c1ccc(S(=O)(=O)Nc2ccc(Cl)nn2)cc1)Nc1ccc(S(=O)(=O)Nc2ccc(Cl)nn2)cc1`
*A* inactive

*Q* Just curious, what result did `Cn1c(NCCc2ccc(O)c(O)c2)nc2c1c(=O)n(Cc1ccc(Cl)c(Cl)c1)c(=O)n2C` get here?
*A* inactive

*Q* // outcome(item) with item = `CN(C)c1ccc(N=C2C=CC(=O)C=C2)cc1`
*A* inactive

*Q* Kindly provide the recorded test outcome for the following molecule: `CCc1c(Nc2ccccc2C)nc(N)[nH]c1=O`
*A* inactive

*Q* Could you please tell me the result logged for C/C=C(/C)C(=O)OC1C=C(CO)C(=O)C(OC(=O)C(C)(O)C(C)Cl)C1C(C)C (centres undefined) in this assay?
*A* active

*Q* Write down the call the test reported for this molecule. Item: CCN(CC)C12CCCCC1(C)C(C#N)(C#N)C(C#N)=C(N)O2 (centres undefined)
*A* inactive

*Q* Answer briefly: the call reported for `Fc1ccccc1Nc1ccc2nnc(-c3ccncc3)n2n1` in this assay.
*A* inactive

*Q* # fetch the recorded call for `CCCCCCCCCCn1cc[n+](C)c1` here
*A* active

*Q* How did this test come out for `O=Nc1ccccc1N=O` ?
*A* inactive

*Q* Dear all, I need the recorded test outcome for `O=C(Nc1ccc(F)cc1)Nc1ccc(Cl)c([N+](=O)[O-])c1` , thank you.
*A* active

*Q* Would you mind telling me which call this test gave `NC(=O)c1cccc(-n2ccc3cc(NC(=O)c4ccc(N5CCOCC5)c(C(F)(F)F)c4)ccc32)n1` ?
*A* inactive

*Q* Kindly provide the recorded test outcome for the following molecule: `COc1cc(NC(=O)c2cc3ccccc3nc2Nc2ccc(F)cc2)cc(OC)c1OC`
*A* active

*Q* GET /call?item= `CC(C)C1=CC2=C(C=O)C[C@@H]3[C@](C)(CCC[C@@]3(C)C(=O)OCC#CCN3CCCC3)[C@H]2CC1` returns the recorded outcome of this test.
*A* inactive

*Q* GET /call?item= `Cc1oc2c(Cc3ccc(NC(=O)c4ccc(Cl)cc4)cc3)ncnc2c1C(=O)NO` returns the recorded outcome of this test.
*A* inactive

*Q* # lookup: test call for `C=C(C)[C@@H]1CC[C@]2(C(=O)O)CC[C@]3(C)[C@H](CC[C@@H]4[C@@]5(C)C/C(=C/c6cccc(I)c6)C(=O)C(C)(C)[C@@H]5CC[C@]43C)[C@@H]12`
*A* inactive

*Q* Test call for this molecule, please: `Cc1cc(N)c2cc(NC(=O)/C=C\c3ccccc3Cl)ccc2n1`
*A* active

*Q* Per the records of this test, what outcome belongs to `COc1cc(OC)cc(-c2ccc(-c3ccc(C(=N)N)cn3)s2)c1` ?
*A* inactive

*Q* Each molecule tested received a call. Report the one for `CN(C)CCN(C)CC(C)(C)C(=O)/C=C/c1ccc(Cl)c(Cl)c1` .
*A* active

*Q* State the result this test recorded for `N#Cc1c(-c2cccc([N+](=O)[O-])c2)nc(SCC(=O)c2ccc(Cl)cc2)[nH]c1=O` .
*A* inactive

*Q* Kindly provide the recorded test outcome for the following molecule: CSc1nc2c(c(=O)[nH]1)N=C1c3ccccc3C(=O)C1C(c1ccccc1)N2 (centres undefined)
*A* inactive

*Q* Would you mind telling me which call this test gave `COc1cc(C(=O)c2cc(C)c3[nH]c4ccc(Cl)cc4c3c2C)cc(OC)c1OC` ?
*A* active

*Q* // return assay outcome for `CN(C)c1ccc(Cc2cc(-c3ccccc3)nn(C/C(=N/O)c3ccccc3)c2=O)cc1`
*A* inactive

*Q* Entry `COc1cc2c(cc1-c1c(C)noc1C)ncc1nc(C3CCC(F)(F)CC3)n([C@@H](C)COC(F)F)c12` : call = ?
*A* inactive

*Q* Give the logged outcome of this assay for the following molecule: `CCN(CC)Cc1cc(Nc2cc(C(F)(F)F)c(C#N)c3nc4ccccc4n23)ccc1O`
*A* active

*Q* Record lookup: outcome of this test for `Cc1ccc(NS(=O)(=O)c2cc(C)ccc2C)cc1` ?
*A* active

*Q* What did this assay record as the result for `C=C(C)[C@@H]1CC[C@]2(C(=O)NCCCO)CC[C@]3(C)[C@H](CC[C@@H]4[C@@]5(C)CCCNC(C)(C)[C@@H]5CC[C@]43C)[C@@H]12` ?
*A* inactive

*Q* Dear all, I need the recorded test outcome for `O=c1c2ccccc2cc2n1CCN=C2c1ccccc1` , thank you.
*A* inactive

*Q* What call does the record list for O=c1ccn(C2OC(CO)C(O)C2F)c(=O)[nH]1 (centres undefined) ?
*A* inactive

*Q* Answer briefly: the call reported for `CCCCC[C@H]1CC=C2C(=O)C=C[C@@H]2CC=CCCCC(=O)O[C@@H](CCCCC)CC=C2C(=O)C=C[C@@H]2CC=CCCCC(=O)O[C@@H](CCCCC)CC=C2C(=O)C=C[C@@H]2CC=CCCCC(=O)O1` in this assay.
*A* active

*Q* What classification did `COc1cc(C(=O)/C=C/c2cn(-c3ccccc3)nc2-c2cccc(Nc3ccnc4cc(Cl)ccc34)c2)cc(OC)c1OC` end up with in this test?
*A* inactive

*Q* Assay result, entry `N/C(=N\C(N)=N\c1nc2ccccc2s1)c1cccc(Br)c1` — outcome?
*A* inactive
